target: KDAC1 (histone deacetylase 1) (Homo sapiens); experiment: Inhibition of full length human C-terminal FLAG/His-tagged KDAC1 expressed in baculovirus expression system at 30 uM using substrate A after 60 mins by microfluidic assay relative to control; details: probe substrate A
Sequence (Q13547 whole entry): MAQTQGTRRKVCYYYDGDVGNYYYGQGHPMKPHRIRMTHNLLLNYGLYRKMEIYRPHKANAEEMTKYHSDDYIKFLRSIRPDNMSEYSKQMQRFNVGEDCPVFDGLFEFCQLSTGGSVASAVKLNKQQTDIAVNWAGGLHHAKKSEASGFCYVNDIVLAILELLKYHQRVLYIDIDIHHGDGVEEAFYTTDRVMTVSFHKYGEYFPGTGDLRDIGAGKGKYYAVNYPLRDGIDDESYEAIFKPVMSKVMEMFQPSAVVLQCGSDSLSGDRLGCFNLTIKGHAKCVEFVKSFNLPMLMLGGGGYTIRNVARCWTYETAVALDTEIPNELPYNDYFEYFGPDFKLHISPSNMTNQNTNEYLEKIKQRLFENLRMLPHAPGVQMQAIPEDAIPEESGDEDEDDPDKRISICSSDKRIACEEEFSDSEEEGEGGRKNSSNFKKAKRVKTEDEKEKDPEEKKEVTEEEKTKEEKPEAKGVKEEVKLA
The following compounds are listed with their measured inhibition at 1 h, 30 µM values.
# number only, unit % dropped from output

compound	readout	numeric_readout
O=C(Nc1cccc([N+](=O)[O-])c1)c1ccc2ccccc2c1O	inhibition at 1 h, 30 µM	3
CCOC(=O)Cc1cc(=O)[nH]n(-c2ccccc2)c1=O	inhibition at 1 h, 30 µM	2
CCOC(=O)C(Cc1ccc(O)cc1)Nc1nc2ccccc2o1 (stereo not drawn)	inhibition at 1 h, 30 µM	1

Prompt: Name the recorded inhibition at 1 h, 30 µM for O=C(O)Cc1ccc(/N=N/c2c(O)c(C(=O)O)cc3ccccc23)cc1 .
Completion: 2

Prompt: Give its inhibition at 1 h, 30 µM value. Item: CC1=CC(C)(C)N=C(S)N1c1cccc2cc(S(=O)(=O)O)ccc12
Completion: 3

Prompt: Item CCOC(=O)c1[nH]c(C(=O)O)c(OC(=O)CC)c1C has what recorded inhibition at 1 h, 30 µM?
Completion: 5

Prompt: Reported inhibition at 1 h, 30 µM, compound FC(F)(F)c1cccc(OCC2CN=C(S)O2)c1 (stereo not drawn) : ____
Completion: 2

Prompt: Dear colleague, I am looking for the recorded inhibition at 1 h, 30 µM of the following compound: CC1=NN(c2ccccc2)C(=O)C1/N=N/c1ccc(S(N)(=O)=O)cc1 (stereo not drawn)
Completion: 1

---

biological target: Histone deacetylase 8 (Schistosoma mansoni); assay: Inhibition of Schistosoma mansoni KDAC8 at 30 uM using (FAM)-labeled peptide as substrate after 60 mins by microfluidic assay
The source made the active and inactive calls. The calls are words filed in the database; no cut-off is given here.
readout: inhibition

// known answers, use as guide
1. CSc1nc(O)nnc1Sc1ccccc1 inactive
2. CC(C)[C@@H]1NC(=O)[C@@H]2CCCN2C(=O)[C@H]2CCCN2C(=O)C[C@@H](C(=O)NCCCSSCCCNC(=O)[C@@H]2CC(=O)N3CCC[C@@H]3C(=O)N3CCC[C@H]3C(=O)N[C@@H](C(C)C)C(=O)N2)NC1=O 0%
3. O=C(CCCCN1C(=O)[C@H](CCC(=O)NO)N=C(c2ccccc2)c2ccccc21)NO 33.5%
4. CC(C)[C@@H]1N=C(c2ccccc2)c2ccccc2N(CCCCC(=O)O)C1=O 0%
5. Nc1ccccc1Sc1cc(Cl)nnc1Cl inactive

Prompt: Query (compound): COC(=O)CCCCN1C(=O)[C@H](Cc2ccccc2)N=C(c2ccccc2)c2ccccc21 ; field requested: inhibition
Completion: 0%

Prompt: So what's the measured inhibition for this one? CCOC(=O)CSc1nc2nc(Cl)c(Cl)[nH]c-2n1
Completion: inactive

Prompt: Sample CC(C)[C@@H]1NC(=O)[C@@H]2CCCN2C(=O)[C@H]2CCCN2C(=O)C[C@@H](C(=O)O)NC1=O — what was its inhibition?
Completion: 0%

---

biological target: Histone deacetylase 8 (Schistosoma mansoni); assay: Inhibition of Schistosoma mansoni KDAC8 at 30 uM using (FAM)-labeled peptide as substrate after 60 mins by microfluidic assay
The source made the active and inactive calls. No cut-off for these calls is given here.
readout: inhibition

These recorded examples may help you get a feel for the data.
compound	inhibition
CC(C)[C@@H]1NC(=O)[C@@H]2CCCN2C(=O)[C@H]2CCCN2C(=O)C[C@H](C(=O)NCCSSCCN)NC1=O	0%
O=C(NCc1ccco1)Nc1cccc([N+](=O)[O-])c1	16%
O=C(O)c1ccccc1C(=O)Nc1ccccc1[N+](=O)[O-]	6%
CC(C)[C@@H]1NC(=O)[C@H]2CCCN2C(=O)[C@@H]2CCCN2C(=O)C[C@H](C(=O)O)NC1=O	0%
O=C1Nc2ccccc2C(c2ccccc2)=N[C@H]1Cc1cn(C(c2ccccc2)(c2ccccc2)c2ccccc2)cn1	9.68%

Prompt: Form: Entry = CC(C)[C@@H]1NC(=O)[C@@H]2CCCN2C(=O)[C@H]2CCCN2C(=O)C[C@H](C(=O)NCCCC(=O)NO)NC1=O | System = Histone deacetylase 8 (Schistosoma mansoni) | inhibition = ____
Completion: 25.8%

Prompt: Requested read-out inhibition, target or system Histone deacetylase 8 (Schistosoma mansoni), entry O=C1Nc2cc(Cl)c(Cl)cc2S(=O)(=O)N1O
Completion: inactive

Prompt: What inhibition appears in the records for this compound with Histone deacetylase 8 (Schistosoma mansoni)? CC(C)[C@@H]1NC(=O)[C@@H]2CCCN2C(=O)[C@H]2CCCN2C(=O)C[C@H](C(=O)NCCCN)NC1=O
Completion: 0%

Prompt: Which measured inhibition belongs to CC(C)C[C@@H]1N=C(c2ccccc2)c2ccccc2N(CCCCC(=O)O)C1=O , tested on Histone deacetylase 8 (Schistosoma mansoni)?
Completion: 0%

Prompt: Query inhibition on Histone deacetylase 8 (Schistosoma mansoni) for O=C(CCCCN1C(=O)[C@@H](CS)N=C(c2ccccc2)c2ccccc21)NO
Completion: 57%

Prompt: Item O=C(Nc1cccc([N+](=O)[O-])c1)c1ccc2ccccc2c1O with Histone deacetylase 8 (Schistosoma mansoni) - inhibition?
Completion: inactive

Prompt: # value lookup — system Histone deacetylase 8 (Schistosoma mansoni), readout inhibition, item CSCCCNC(=O)[C@@H]1CC(=O)N2CCC[C@H]2C(=O)N2CCC[C@@H]2C(=O)N[C@@H](C(C)C)C(=O)N1
Completion: 0%

Prompt: Short answer please: inhibition, Histone deacetylase 8 (Schistosoma mansoni), entry CC(=O)OCCn1c([N+](=O)[O-])cnc1/C=[N+](\[O-])C1CCCCC1
Completion: 12%

Prompt: Can you look up inhibition on Histone deacetylase 8 (Schistosoma mansoni) for CC(C)(C)SC[C@H]1N=C(c2ccccc2)c2ccccc2NC1=O ?
Completion: 0%

Prompt: Under Histone deacetylase 8 (Schistosoma mansoni): inhibition value of COC(=O)CCCCN1C(=O)[C@H](CCCNC(=N)NS(=O)(=O)c2c(C)c(C)c3c(c2C)CC(C)(C)O3)N=C(c2ccccc2)c2ccccc21 ?
Completion: 0%

Prompt: Return inhibition measured with Histone deacetylase 8 (Schistosoma mansoni) given this compound: CC(C)[C@@H]1NC(=O)[C@H]2CCCN2C(=O)[C@@H]2CCCN2C(=O)C[C@H](C(=O)NCCSSCCNC(=O)[C@H]2CC(=O)N3CCC[C@H]3C(=O)N3CCC[C@@H]3C(=O)N[C@@H](C(C)C)C(=O)N2)NC1=O
Completion: 0%

Prompt: // fetch Histone deacetylase 8 (Schistosoma mansoni) inhibition for O=[N+]([O-])c1c(N2CCN(CCO)CC2)nc2ccccn12
Completion: 2%

Prompt: Param readout= inhibition; system= Histone deacetylase 8 (Schistosoma mansoni); entry= CC(C)[C@@H]1NC(=O)[C@@H]2CCCN2C(=O)[C@H]2CCCN2C(=O)C[C@@H](C(=O)NCCC[S+](C)[O-])NC1=O (some centres undefined) ; returns value.
Completion: 0%

Prompt: What reported inhibition corresponds to O=C1CSC(=S)N1/N=C/c1c[nH]c2ccc(Br)cc12 on Histone deacetylase 8 (Schistosoma mansoni)?
Completion: inactive
